This collection of values is drawn from patent US20190062749A1.

- test details: Stability of siRNAs in human plasma in vitro (gel, ratio of the longest fragments RL)
- Format: in vitro ADME
- experimental context: 50% human plasma, 37° C., 6 h
Oligonucleotides are written 5' to 3', each unit as a sugar letter and its base; * is a phosphorothioate linkage, no mark a phosphodiester; rarer units and linkages stand in square brackets, end groups in braces. Plain capitals give the bases only. d = 2'-deoxy (DNA); m = 2'-O-methyl; r = 2'-OH (RNA); f = 2'-fluoro
Measured RL (ratio of the longest fragments) 6 h values are reported for all entries that follow.
Report as a plain number; the unit % is understood.

Sample answers from the record:
X2M2(S−−): sense CmCmUmUmGAGGCmAUmACmUmUmCmAAAdTdT, antisense UfUmUfGAAGUfAUGCCUfCAAGGdTdT (as printed in the source, key not given here)	90.2
2d: sense CmCmUmUmGAGGCmAUmACmUmUmCmAAAdTdT, antisense UfUUfGAAGUfAUfGCCUfCAAGGdTdT (sense mCmCmUmUrGrArGrGmCrAmUrAmCmUmUmCrArArAdTdT; antisense fUrUfUrGrArArGfUrAfUrGrCrCfUrCrArArGrGdTdT)	82.2
1d: sense CmCmUmUmGAGGCmAUmACmUmUmCmAAAdTdT, antisense UUmUfGAAGUfAUfGCCUfCAAGGdTdT (sense mCmCmUmUrGrArGrGmCrAmUrAmCmUmUmCrArArAdTdT; antisense rUmUfUrGrArArGfUrAfUrGrCrCfUrCrArArGrGdTdT)	93.3
X2M2(S++): sense CmCmUmUmGAGGCmAUmACmUmUmCmAAAdT-s-dT, antisense UfUmUfGAAGUfAUGCCUfCAAGGdT-s-dT (sense CCUUGAGGCAUACUUCAAAT; antisense UUUGAAGUAUGCCUCAAGGT; chemistry not fully specified)	98.6
3d: sense CmCmUmUmGAGGCmAUmACmUmUmCmAAAdTdT, antisense UfUmUGAAGUfAUfGCCUfCAAGGdTdT (sense mCmCmUmUrGrArGrGmCrAmUrAmCmUmUmCrArArAdTdT; antisense fUmUrUrGrArArGfUrAfUrGrCrCfUrCrArArGrGdTdT)	93.3

QUERY: Given the entry 8d: sense CmCmUmUmGAGGCmAUmACmUmUmCmAAAdTdT, antisense UfUmUfGAAGUAUfGCCUfCAAGGdTdT (sense mCmCmUmUrGrArGrGmCrAmUrAmCmUmUmCrArArAdTdT; antisense fUmUfUrGrArArGrUrAfUrGrCrCfUrCrArArGrGdTdT) , report its measured RL (ratio of the longest fragments) 6 h.
RESULT: 59.7

QUERY: Given the entry A4: siRNA of CN102140461B; sense CmCmUmUmGAGGCmAUmACmUmUmCmAAAdTdT, antisense UfUmUfGAAGUfAUfGCCUfCAAGGdTdT (sense CCUUGAGGCAUACUUCAAATT; antisense UUUGAAGUAUGCCUCAAGGTT; sense: DNA at T, 2'-O-methyl at CU, RNA at AG, backbone not given here; antisense: sugars from the 5' end fmfrrrrfrfrrrfrrrrrdd, backbone not given here) [reference compound] , report its measured RL (ratio of the longest fragments) 6 h.
RESULT: 106.0

QUERY: Given the entry CA2: alternating modifications; sense CmCUmUGmAGmGCmAUmACmUUmCAmAAmdTdT, antisense UmUUmGAmAGmUAmUGmCCmUCmAAmGGmdTdT (sense CCUUGAGGCAUACUUCAAATT; antisense UUUGAAGUAUGCCUCAAGGTT; sugars from the 5' end mrmrmrmrmrmrmrmrmrmdd, backbone not given here) [reference compound] , report its measured RL (ratio of the longest fragments) 6 h.
RESULT: 68.8

QUERY: Given the entry 14d: sense CmCmUmUmGAGGCmAUmACmUmUmCmAAAdTdT, antisense UfUmUfGAAGUfAUfGCCUCAAGGdTdT (sense mCmCmUmUrGrArGrGmCrAmUrAmCmUmUmCrArArAdTdT; antisense fUmUfUrGrArArGfUrAfUrGrCrCrUrCrArArGrGdTdT) , report its measured RL (ratio of the longest fragments) 6 h.
RESULT: 85.6

====

- test details: Stability of siRNAs in human plasma in vitro (gel, ratio of the longest fragments RL)
- Type: in vitro ADME
- experimental context: 50% human plasma, 37° C., 48 h
Oligonucleotides are written 5' to 3', each unit as a sugar letter and its base; * is a phosphorothioate linkage, no mark a phosphodiester; rarer units and linkages stand in square brackets, end groups in braces. Plain capitals give the bases only. d = 2'-deoxy (DNA); m = 2'-O-methyl; r = 2'-OH (RNA); f = 2'-fluoro
Measured RL (ratio of the longest fragments) 48 h values are reported for all entries that follow.
Report as a plain number; the unit % is understood.

A4: siRNA of CN102140461B; sense CmCmUmUmGAGGCmAUmACmUmUmCmAAAdTdT, antisense UfUmUfGAAGUfAUfGCCUfCAAGGdTdT (sense CCUUGAGGCAUACUUCAAATT; antisense UUUGAAGUAUGCCUCAAGGTT; sense: DNA at T, 2'-O-methyl at CU, RNA at AG, backbone not given here; antisense: sugars from the 5' end fmfrrrrfrfrrrfrrrrrdd, backbone not given here) [reference compound]	81.2
8d: sense CmCmUmUmGAGGCmAUmACmUmUmCmAAAdTdT, antisense UfUmUfGAAGUAUfGCCUfCAAGGdTdT (sense mCmCmUmUrGrArGrGmCrAmUrAmCmUmUmCrArArAdTdT; antisense fUmUfUrGrArArGrUrAfUrGrCrCfUrCrArArGrGdTdT)	25.9

Please look at the following substance next.
QUERY: Given the entry CA2: alternating modifications; sense CmCUmUGmAGmGCmAUmACmUUmCAmAAmdTdT, antisense UmUUmGAmAGmUAmUGmCCmUCmAAmGGmdTdT (sense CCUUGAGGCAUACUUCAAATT; antisense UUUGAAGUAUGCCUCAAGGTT; sugars from the 5' end mrmrmrmrmrmrmrmrmrmdd, backbone not given here) [reference compound] , report its measured RL (ratio of the longest fragments) 48 h.
RESULT: 52.0

====

- test details: Stability of siRNAs in human plasma in vitro (gel, ratio of the longest fragments RL)
- Format: in vitro ADME
- experimental context: 50% human plasma, 37° C., 8 h
Oligonucleotides are written 5' to 3', each unit as a sugar letter and its base; * is a phosphorothioate linkage, no mark a phosphodiester; rarer units and linkages stand in square brackets, end groups in braces. Plain capitals give the bases only. d = 2'-deoxy (DNA); m = 2'-O-methyl; r = 2'-OH (RNA); f = 2'-fluoro
value type: RL (ratio of the longest fragments) 8 h

QUERY: Given the entry 1d: sense CmCmUmUmGAGGCmAUmACmUmUmCmAAAdTdT, antisense UUmUfGAAGUfAUfGCCUfCAAGGdTdT (sense mCmCmUmUrGrArGrGmCrAmUrAmCmUmUmCrArArAdTdT; antisense rUmUfUrGrArArGfUrAfUrGrCrCfUrCrArArGrGdTdT) , report its measured RL (ratio of the longest fragments) 8 h.
RESULT: 87.5%

QUERY: Given the entry 2d: sense CmCmUmUmGAGGCmAUmACmUmUmCmAAAdTdT, antisense UfUUfGAAGUfAUfGCCUfCAAGGdTdT (sense mCmCmUmUrGrArGrGmCrAmUrAmCmUmUmCrArArAdTdT; antisense fUrUfUrGrArArGfUrAfUrGrCrCfUrCrArArGrGdTdT) , report its measured RL (ratio of the longest fragments) 8 h.
RESULT: 84.5%

QUERY: Given the entry X2M2(S++): sense CmCmUmUmGAGGCmAUmACmUmUmCmAAAdT-s-dT, antisense UfUmUfGAAGUfAUGCCUfCAAGGdT-s-dT (sense CCUUGAGGCAUACUUCAAAT; antisense UUUGAAGUAUGCCUCAAGGT; chemistry not fully specified) , report its measured RL (ratio of the longest fragments) 8 h.
RESULT: 93.0%

QUERY: Given the entry A4: siRNA of CN102140461B; sense CmCmUmUmGAGGCmAUmACmUmUmCmAAAdTdT, antisense UfUmUfGAAGUfAUfGCCUfCAAGGdTdT (sense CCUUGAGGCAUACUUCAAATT; antisense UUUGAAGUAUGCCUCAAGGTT; sense: DNA at T, 2'-O-methyl at CU, RNA at AG, backbone not given here; antisense: sugars from the 5' end fmfrrrrfrfrrrfrrrrrdd, backbone not given here) [reference compound] , report its measured RL (ratio of the longest fragments) 8 h.
RESULT: 91.7%

QUERY: Given the entry CA2: alternating modifications; sense CmCUmUGmAGmGCmAUmACmUUmCAmAAmdTdT, antisense UmUUmGAmAGmUAmUGmCCmUCmAAmGGmdTdT (sense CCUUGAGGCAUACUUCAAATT; antisense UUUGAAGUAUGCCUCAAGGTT; sugars from the 5' end mrmrmrmrmrmrmrmrmrmdd, backbone not given here) [reference compound] , report its measured RL (ratio of the longest fragments) 8 h.
RESULT: 67.7%
